The values you see were collected from patent US20210230570.

- TEST_SYSTEM: Factor X (FX), P00742
- Sequence (P00742 whole entry, looked up): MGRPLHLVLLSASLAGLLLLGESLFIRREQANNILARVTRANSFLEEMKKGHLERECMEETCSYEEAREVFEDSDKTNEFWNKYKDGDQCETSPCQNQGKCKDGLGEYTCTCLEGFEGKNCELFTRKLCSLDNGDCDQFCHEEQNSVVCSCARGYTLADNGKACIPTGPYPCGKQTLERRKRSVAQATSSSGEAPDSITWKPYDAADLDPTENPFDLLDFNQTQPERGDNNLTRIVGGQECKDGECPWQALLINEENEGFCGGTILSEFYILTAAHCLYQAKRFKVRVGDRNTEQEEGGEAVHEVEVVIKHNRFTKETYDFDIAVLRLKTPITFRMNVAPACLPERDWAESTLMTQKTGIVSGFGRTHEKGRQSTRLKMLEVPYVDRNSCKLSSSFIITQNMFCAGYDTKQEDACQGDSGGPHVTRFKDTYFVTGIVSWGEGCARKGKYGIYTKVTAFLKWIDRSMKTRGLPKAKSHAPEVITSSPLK
Exercise: for every item that follows, state its recorded KM.
Number in nM, nothing else.

Prompt: Answer with reported KM of FIXa-K247N/N249S/R338E/R403E/E410N (protein) chain 1: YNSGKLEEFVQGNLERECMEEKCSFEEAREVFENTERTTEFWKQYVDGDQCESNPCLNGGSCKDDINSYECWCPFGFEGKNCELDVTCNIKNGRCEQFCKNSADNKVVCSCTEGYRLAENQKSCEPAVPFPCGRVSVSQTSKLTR chain 2: VVGGEDAKPGQFPWQVVLNGKVDAFCGGSIVNEKWIVTAAHCVETGVKITVVAGEHNIEETEHTEQNRSVIRIIPHHNYNAAINKYNHDIALLELDEPLVLNSYVTPICIADKEYTNIFLKFGSGYVSGWGRVFHKGRSALVLQYLRVPLVDRATCLESTKFTIYNNMFCAGFHEGGRDSCQGDSGGPHVTEVEGTSFLTGIISWGEECAMKGKYGIYTKVSEYVNWIKNKTKLT
Completion: 25

Prompt: Determine its reported KM: FIXa-K247N/N249S/R318Y/R403E/E410N (protein) chain 1: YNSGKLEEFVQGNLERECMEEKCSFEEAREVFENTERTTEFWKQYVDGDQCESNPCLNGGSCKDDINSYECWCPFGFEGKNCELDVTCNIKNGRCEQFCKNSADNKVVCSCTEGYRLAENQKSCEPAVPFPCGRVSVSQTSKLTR chain 2: VVGGEDAKPGQFPWQVVLNGKVDAFCGGSIVNEKWIVTAAHCVETGVKITVVAGEHNIEETEHTEQNRSVIRIIPHHNYNAAINKYNHDIALLELDEPLVLNSYVTPICIADKEYTNIFLKFGSGYVSGWGRVFHKGYSALVLQYLRVPLVDRATCLRSTKFTIYNNMFCAGFHEGGRDSCQGDSGGPHVTEVEGTSFLTGIISWGEECAMKGKYGIYTKVSEYVNWIKNKTKLT
Completion: 111
